Target: T1, Mouse TrkB ectodomain protein (R&D #1494-TB/CF) (mouse, UniProt P15209 32-429)
T1 construct: extracellular domain; Bought protein; also called mouse TrkB-extracellular domain protein
T1 sequence (P15209 32-429): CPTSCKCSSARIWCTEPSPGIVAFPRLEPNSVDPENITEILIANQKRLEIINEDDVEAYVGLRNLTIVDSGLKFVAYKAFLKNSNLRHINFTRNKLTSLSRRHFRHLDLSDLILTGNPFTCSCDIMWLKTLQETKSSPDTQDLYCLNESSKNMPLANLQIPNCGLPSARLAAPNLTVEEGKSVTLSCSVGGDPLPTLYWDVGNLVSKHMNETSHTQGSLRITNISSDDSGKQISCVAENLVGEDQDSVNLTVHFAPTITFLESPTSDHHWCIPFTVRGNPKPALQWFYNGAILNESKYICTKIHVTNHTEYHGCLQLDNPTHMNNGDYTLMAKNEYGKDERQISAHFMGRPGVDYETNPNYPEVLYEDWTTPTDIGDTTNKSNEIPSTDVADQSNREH
Experiment: SPR (Biacore), TrkB ectodomain immobilised on CM5, antibody injected
REPORTED ENDPOINT: Kd (nM)
Numbers only, in nM.

Looking up chimeric TOA-1 antibody (antibody, V domains shown, also called chiTOA-1; VH mouse / VL mouse) VH: EVQLQQSGPELVKPGASMKISCKTSGYSFTAYFMNWVKQSHGKSLEWIGRINPNNGDTFYTQKFKGKATLTVDKSSNTAHMELLSLTSEDSAIYYCGRRDYFGAMDYWGQGTSVTVSS VL: AIVLIQSPATLSVTPGDSVSLSCRASQTISNNLHWYQQKSHESPRLLIKSASLAISGIPSRFSGSGSGTDFTLSISSVETEDFGMYFCQQSNSWPNTFGGGTKLEIK , I found its Kd recorded as 17

Each recorded value in this set is attributed to patent US20200123260A1.
